molecular target: T1, HLA-A*02:01 (human); experiment: UV peptide exchange ELISA (anti-b2m); yield grade: + >10%, ++ >20%, +++ >50, ++++ >75%
T1 construct: captured on streptavidin plates; also called peptide-receptive MHC molecules
# peptide exchange yield annotations

// solved cases for peptide exchange yield follow
GTIPLIESL :: 10 to 20%
FLDSEVSEL :: 50 to 75%
ILPSNLLTV :: 50 to 75%
GLFPSNFVTA :: > 75%
VLYDPVVGC :: > 75%

Reported peptide exchange yield of `FLETNVPLL` : 50 to 75%

Reported peptide exchange yield of `GLDTILQNL` : > 75%

Reported peptide exchange yield of `ALLSQDFEL` : > 75%

Reported peptide exchange yield of `LLDSGAFHL` : 50 to 75%

Reported peptide exchange yield of `SIPDTIASV` : 50 to 75%

Reported peptide exchange yield of `GLLDVMYQV` : > 75%

Reported peptide exchange yield of `FLPFLTTEV` : > 75%

Reported peptide exchange yield of `GVVHGVATV` : > 75%

The reported measurements were obtained from patent US20190040115A1.
